system: 379773-124-R-J2-PDC complex spheroids, viability % test/control; assay: Anticancer human tumor 379773-124-R-J2-PDC patient-derived endometrial carcinoma cell line growth inhibition [CLK]; details: second compound 0.1 µM; first compound 0.03 µM; stronger effect = lower value
Each item that follows carries a reported viability, T/C.
Lab book: enter the figure in %, no units written.

MOLECULE: C=CC(=O)Nc1cc(Nc2nccc(-c3cn(C)c4ccccc34)n2)c(OC)cc1N(C)CCN(C)C + CNC(=O)c1ccc(Nc2nc(OC3CCCC3)c3c(-c4ccc5nc(C)oc5c4)c[nH]c3n2)c(OC)c1
VALUE_OBSERVED: 31.2

MOLECULE: NC(=O)C(=Cn1cnc(-c2cc(C(F)(F)F)cc(C(F)(F)F)c2)n1)c1cncnc1 + CN1CCN(c2cc(C(=O)Nc3cc4cc(-c5cnn(C)c5)ccc4cn3)ccn2)CC1
VALUE_OBSERVED: 57.7

MOLECULE: NC(=O)C(=Cn1cnc(-c2cc(C(F)(F)F)cc(C(F)(F)F)c2)n1)c1cncnc1 + CNC(=O)c1ccc(Nc2nc(OC3CCCC3)c3c(-c4ccc5nc(C)oc5c4)c[nH]c3n2)c(OC)c1
VALUE_OBSERVED: 29.7

MOLECULE: CC(C)CC(NC(=O)C(Cc1ccccc1)NC(=O)c1cnccn1)B(O)O (stereo unspecified) + CN1CCN(c2cc(C(=O)Nc3cc4cc(-c5cnn(C)c5)ccc4cn3)ccn2)CC1
VALUE_OBSERVED: 0.15

**Q:** Could you tell me which viability, T/C is on file for CC(C)CC(NC(=O)C(Cc1ccccc1)NC(=O)c1cnccn1)B(O)O (stereo unspecified) + CNC(=O)c1ccc(Nc2nc(OC3CCCC3)c3c(-c4ccc5nc(C)oc5c4)c[nH]c3n2)c(OC)c1 ?
**A:** 0.13

**Q:** Repeat with C=CC(=O)Nc1cc(Nc2nccc(-c3cn(C)c4ccccc34)n2)c(OC)cc1N(C)CCN(C)C + CN1CCN(c2cc(C(=O)Nc3cc4cc(-c5cnn(C)c5)ccc4cn3)ccn2)CC1
**A:** 84

----------
tested on: 379773-124-R-J2-PDC complex spheroids, viability % test/control; assay: Anticancer human tumor 379773-124-R-J2-PDC cell line growth inhibition [CLK]; conditions: second compound 0.316 µM; first compound 0.316 µM; active = viability on the fitted dose curve at most 10% of control; inactive = the rest;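 note: compound exposure lasted seven days before the viability readout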
Valid outcomes are listed here; reply with one: active, inactive

COMPOUND: CC1COCCN1c1cc(C2(S(C)(=N)=O)CC2)nc(-c2ccnc3[nH]ccc23)n1 (stereo not given) + CN1CCN(c2cc(C(=O)Nc3cc4cc(-c5cnn(C)c5)ccc4cn3)ccn2)CC1
ASSIGNED_CATEGORY: inactive
//
COMPOUND: COc1cccc2c1C(=O)c1c(O)c3c(c(O)c1C2=O)CC(O)(C(=O)CO)CC3OC1CC(N)C(O)C(C)O1 (stereo not given) + CNC(=O)c1ccc(Nc2nc(OC3CCCC3)c3c(-c4ccc5nc(C)oc5c4)c[nH]c3n2)c(OC)c1
ASSIGNED_CATEGORY: active
//
COMPOUND: O=c1[nH]cc(F)c(=O)[nH]1 + CNC(=O)c1ccc(Nc2nc(OC3CCCC3)c3c(-c4ccc5nc(C)oc5c4)c[nH]c3n2)c(OC)c1
ASSIGNED_CATEGORY: inactive

**Q:** Which outcome was assigned to C=CC(=O)N1CCN(c2nc(=O)n(-c3c(C)ccnc3C(C)C)c3nc(-c4c(O)cccc4F)c(F)cc23)C(C)C1 (stereo not given) + CNC(=O)c1ccc(Nc2nc(OC3CCCC3)c3c(-c4ccc5nc(C)oc5c4)c[nH]c3n2)c(OC)c1 in this test?
**A:** inactive

**Q:** Repeat with C#Cc1c(F)ccc2cc(O)cc(-c3ncc4c(N5CC6CCC(C5)N6)nc(OCC56CCCN5CC(F)C6)nc4c3F)c12 (stereo not given) + CNC(=O)c1ccc(Nc2nc(OC3CCCC3)c3c(-c4ccc5nc(C)oc5c4)c[nH]c3n2)c(OC)c1
**A:** inactive

----------
system: 379773-124-R-J2-PDC complex spheroids, viability % test/control; assay: Anticancer human tumor 379773-124-R-J2-PDC cell line growth inhibition [CLK]; details: second compound 0.316 µM; first compound 3.16 µM; stronger effect = lower value;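 note: compound exposure lasted seven days before the viability readout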;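 for viability, T/C: 100% = DMSO vehicle control wells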
MEASURED_PARAMETER: viability, T/C (%)
Lab book: enter the figure in %, no units written.

COMPOUND: COc1ccc([C@@H](O)c2cc(-c3ncnc4cc(N5CCOCC5)ccc34)c(F)cc2Cl)nn1 + CN1CCN(c2cc(C(=O)Nc3cc4cc(-c5cnn(C)c5)ccc4cn3)ccn2)CC1
EXPERIMENTAL_SYSTEM: 379773-124-R-J2-PDC complex spheroids, viability % test/control
READING_UNIT: %
viability, T/C: 12.9
--
COMPOUND: C=CC(=O)N1CCN(c2nc(=O)n(-c3c(C)ccnc3C(C)C)c3nc(-c4c(O)cccc4F)c(F)cc23)C(C)C1 (stereo unspecified) + CNC(=O)c1ccc(Nc2nc(OC3CCCC3)c3c(-c4ccc5nc(C)oc5c4)c[nH]c3n2)c(OC)c1
EXPERIMENTAL_SYSTEM: 379773-124-R-J2-PDC complex spheroids, viability % test/control
READING_UNIT: %
viability, T/C: 37
--
COMPOUND: CC1(C)CCC(CN2CCN(c3ccc(C(=O)NS(=O)(=O)c4ccc(NCC5CCOCC5)c([N+](=O)[O-])c4)c(Oc4cnc5[nH]ccc5c4)c3)CC2)=C(c2ccc(Cl)cc2)C1 + CNC(=O)c1ccc(Nc2nc(OC3CCCC3)c3c(-c4ccc5nc(C)oc5c4)c[nH]c3n2)c(OC)c1
EXPERIMENTAL_SYSTEM: 379773-124-R-J2-PDC complex spheroids, viability % test/control
READING_UNIT: %
viability, T/C: 32

**Q:** Could you tell me which viability, T/C is on file for O=c1[nH]cc(F)c(=O)[nH]1 + CNC(=O)c1ccc(Nc2nc(OC3CCCC3)c3c(-c4ccc5nc(C)oc5c4)c[nH]c3n2)c(OC)c1 ?
**A:** 24

**Q:** Repeat with C=C(F)C(=O)N1CCN(c2nc(OCC3CCCN3C)nc3c2CCN(c2cccc4cccc(Cl)c24)C3)CC1CC#N (stereo unspecified) + CN1CCN(c2cc(C(=O)Nc3cc4cc(-c5cnn(C)c5)ccc4cn3)ccn2)CC1
**A:** 13.6

**Q:** Repeat with C=CC(=O)N1CCN(c2nc(=O)n(-c3c(C)ccnc3C(C)C)c3nc(-c4c(O)cccc4F)c(F)cc23)C(C)C1 (stereo unspecified) + CN1CCN(c2cc(C(=O)Nc3cc4cc(-c5cnn(C)c5)ccc4cn3)ccn2)CC1
**A:** 38.5

**Q:** Repeat with CC(Nc1ccc2c(c1)OCCn1cc(N3C(=O)OCC3C(F)F)nc1-2)C(N)=O (stereo unspecified) + CNC(=O)c1ccc(Nc2nc(OC3CCCC3)c3c(-c4ccc5nc(C)oc5c4)c[nH]c3n2)c(OC)c1
**A:** 19.1

**Q:** Repeat with C#Cc1c(F)ccc2cc(O)cc(-c3ncc4c(N5CC6CCC(C5)N6)nc(OCC56CCCN5CC(F)C6)nc4c3F)c12 (stereo unspecified) + CNC(=O)c1ccc(Nc2nc(OC3CCCC3)c3c(-c4ccc5nc(C)oc5c4)c[nH]c3n2)c(OC)c1
**A:** 33.4

**Q:** Repeat with Nc1ccn(C2OC(CO)C(O)C2(F)F)c(=O)n1 (stereo unspecified) + CN1CCN(c2cc(C(=O)Nc3cc4cc(-c5cnn(C)c5)ccc4cn3)ccn2)CC1
**A:** 1.51

**Q:** Repeat with Nc1ccccc1NC(=O)c1ccc(CNC(=O)OCc2cccnc2)cc1 + CNC(=O)c1ccc(Nc2nc(OC3CCCC3)c3c(-c4ccc5nc(C)oc5c4)c[nH]c3n2)c(OC)c1
**A:** 15.3

**Q:** Repeat with O=c1[nH]cc(F)c(=O)[nH]1 + CN1CCN(c2cc(C(=O)Nc3cc4cc(-c5cnn(C)c5)ccc4cn3)ccn2)CC1
**A:** 19.1

----------
tested on: 379773-124-R-J2-PDC complex spheroids, viability % test/control; experiment: Anticancer human tumor 379773-124-R-J2-PDC cell line growth inhibition [CLK]; conditions: curve of first compound; second compound 0.1 µM;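 note: compound exposure lasted seven days before the viability readout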
MEASURED_PARAMETER: IC50

Look over these answered cases.
MOLECULE: C=CC(=O)Nc1cc(Nc2nccc(-c3cn(C)c4ccccc34)n2)c(OC)cc1N(C)CCN(C)C + CNC(=O)c1ccc(Nc2nc(OC3CCCC3)c3c(-c4ccc5nc(C)oc5c4)c[nH]c3n2)c(OC)c1
IC50: < 0.000949 µM
--
MOLECULE: C=CC(=O)Nc1cc(Nc2nccc(-c3cn(C)c4ccccc34)n2)c(OC)cc1N(C)CCN(C)C + CN1CCN(c2cc(C(=O)Nc3cc4cc(-c5cnn(C)c5)ccc4cn3)ccn2)CC1
IC50: > 0.3 µM

**Q:** Could you tell me which IC50 is on file for C=CC(=O)N1CCN(c2nc(=O)n(-c3c(C)ccnc3C(C)C)c3nc(-c4c(O)cccc4F)c(F)cc23)C(C)C1 (stereo not given) + CNC(=O)c1ccc(Nc2nc(OC3CCCC3)c3c(-c4ccc5nc(C)oc5c4)c[nH]c3n2)c(OC)c1 ?
**A:** < 0.0316 µM

**Q:** Repeat with Nc1ccn(C2OC(CO)C(O)C2(F)F)c(=O)n1 (stereo not given) + CN1CCN(c2cc(C(=O)Nc3cc4cc(-c5cnn(C)c5)ccc4cn3)ccn2)CC1
**A:** < 0.0316 µM

**Q:** Repeat with CC(C)CC(NC(=O)C(Cc1ccccc1)NC(=O)c1cnccn1)B(O)O (stereo not given) + CNC(=O)c1ccc(Nc2nc(OC3CCCC3)c3c(-c4ccc5nc(C)oc5c4)c[nH]c3n2)c(OC)c1
**A:** < 0.000949 µM

**Q:** Repeat with COc1ccc([C@@H](O)c2cc(-c3ncnc4cc(N5CCOCC5)ccc34)c(F)cc2Cl)nn1 + CN1CCN(c2cc(C(=O)Nc3cc4cc(-c5cnn(C)c5)ccc4cn3)ccn2)CC1
**A:** 2.82 µM

**Q:** Repeat with CC(=O)O[C@H]1C(=O)[C@@]2(C)[C@H]([C@H](OC(=O)c3ccccc3)[C@]3(O)C[C@H](OC(=O)[C@H](O)[C@@H](NC(=O)c4ccccc4)c4ccccc4)C(C)=C1C3(C)C)[C@]1(OC(C)=O)CO[C@@H]1C[C@@H]2O + CN1CCN(c2cc(C(=O)Nc3cc4cc(-c5cnn(C)c5)ccc4cn3)ccn2)CC1
**A:** < 0.0316 µM

**Q:** Repeat with O=C(c1cc(Cc2n[nH]c(=O)c3ccccc23)ccc1F)N1CCN(C(=O)C2CC2)CC1 + CNC(=O)c1ccc(Nc2nc(OC3CCCC3)c3c(-c4ccc5nc(C)oc5c4)c[nH]c3n2)c(OC)c1
**A:** < 0.0316 µM

**Q:** Repeat with O=c1[nH]cc(F)c(=O)[nH]1 + CN1CCN(c2cc(C(=O)Nc3cc4cc(-c5cnn(C)c5)ccc4cn3)ccn2)CC1
**A:** > 10 µM

**Q:** Repeat with C#Cc1c(F)ccc2cc(O)cc(-c3ncc4c(N5CC6CCC(C5)N6)nc(OCC56CCCN5CC(F)C6)nc4c3F)c12 (stereo not given) + CNC(=O)c1ccc(Nc2nc(OC3CCCC3)c3c(-c4ccc5nc(C)oc5c4)c[nH]c3n2)c(OC)c1
**A:** < 0.0316 µM
